# Tested on: FGFR3 enzyme
# experimentDescription: FGFR Enzymatic Assay (FRET peptide phosphorylation), FGFR3
# Assay type: biochemical
# conditionLabel: IC50 ratio showing FGFR3 selectivity; Table 2A, pre-incubated for 4 hours
experimentalEndpoint: FGFR4/FGFR3

Fill in FGFR4/FGFR3 for COc1cc(OC)c(F)c(N2Cc3cnc(-c4cn(C)nc4C)cc3N(Cc3cnn(C4CC4)c3)C2=O)c1F tested with FGFR3 enzyme.
>10

Fill in FGFR4/FGFR3 for CNS(=O)(=O)c1cccc(N2C(=O)N(c3c(F)c(OC)cc(OC)c3F)Cc3cnc(-c4cn(C)nc4C)cc32)c1 tested with FGFR3 enzyme.
>5

Fill in FGFR4/FGFR3 for COc1cc(OC)c(F)c(N2Cc3cnc(-c4cn(C)nc4C)cc3N(Cc3cc(C(C)C)on3)C2=O)c1F tested with FGFR3 enzyme.
>5

Fill in FGFR4/FGFR3 for COc1cc(OC)c(F)c(N2Cc3cnc(-c4cn(C)nc4C)cc3N(Cc3cc(C)no3)C2=O)c1F tested with FGFR3 enzyme.
>10

Fill in FGFR4/FGFR3 for COc1cc(OC)c(F)c(N2Cc3cnc(-c4cn(C)nc4C)cc3N(CCc3cnn(C)c3)C2=O)c1F tested with FGFR3 enzyme.
>5

Fill in FGFR4/FGFR3 for COc1cc(OC)c(F)c(N2Cc3cnc(-c4ccc(C5(C#N)CCC5)nc4)cc3N(c3ccncn3)C2=O)c1F tested with FGFR3 enzyme.
>10

Fill in FGFR4/FGFR3 for COc1cccc(N2C(=O)N(c3c(F)c(OC)cc(OC)c3F)Cc3cnc(-c4cn(C)nc4C)cc32)c1 tested with FGFR3 enzyme.
>10

----------
# Tested on: FGFR3 enzyme
# experimentDescription: FGFR Enzymatic Assay (FRET peptide phosphorylation), FGFR3
# Format: biochemical
# conditionLabel: IC50 ratio showing FGFR3 selectivity; Table 2A, pre-incubated for 4 hours
Measured FGFR1/FGFR3 by item

Look up and state reported FGFR1/FGFR3 for COc1cc(OC)c(F)c(N2Cc3cnc(-c4cn(C)nc4C)cc3N(c3ccc(F)c(F)c3)C2=O)c1F
>3

Look up and state reported FGFR1/FGFR3 for CCN1C(=O)N(c2c(F)c(OC)cc(OC)c2F)Cc2cnc(-c3cnn(C)c3)cc21
>3

----------
# Test system: FGFR3 enzyme
# experimentDescription: FGFR Enzymatic Assay (FRET peptide phosphorylation), FGFR3
# Assay type: biochemical
# conditionLabel: IC50 ratio showing FGFR3 selectivity; Table 2A, pre-incubated for 4 hours
Measured FGFR4/FGFR3 by item

Observe how each entry below is paired with its result.
> print(dat)
                                   compound  endpointvalue
1  COc1cc(OC)c(F)c(N2Cc3cnc(-c4cn(C)nc4C)cc3N(c3ccc4nc(C)oc4c3)C2=O)c1F [Example 75]             >3
2  COc1cc(OC)c(F)c(N2Cc3cnc(-c4cn(CCCN5CCOCC5)nc4C)cc3C3(CC3)C2=O)c1F [Example 146]             >5
3  COc1cc(OC)c(F)c(N2Cc3cnc(-c4cnn(C5(C#N)CCC5)c4C)cc3C3(CC3)C2=O)c1F [Example 149]             >3
4  COc1cc(OC)c(F)c(N2Cc3cnc(-c4cn(CC(=O)N5CCOCC5)nc4C)cc3C3(CC3)C2=O)c1F [Example 159]             >3
5  COc1cc(OC)c(F)c(N2Cc3cnc(-c4cn(C)nc4C)cc3N(Cc3ccccn3)C2=O)c1F [Example 94]            >10
6  CCN1C(=O)N(c2c(F)c(OC)cc(OC)c2F)Cc2cnc(-c3ccc(C(C)(C)C#N)nc3)cc21 [Example 26]             >5

Now look at this entry.
Look up and state reported FGFR4/FGFR3 for COc1cc(OC)c(F)c(N2Cc3cnc(-c4cnn(CC5CN(S(C)(=O)=O)C5)c4)cc3C3(CC3)C2=O)c1F [Example 166]
>3
